Value source: ChEMBL document CHEMBL3120109

experiment.description: Cytotoxicity against human HuhET cells by [3H]thymidine incorporation assay
Type: cell-based

| smiles.data | CC50 |
| --- | --- |
| COC(=O)N[C@H](C(=O)N1C[C@@H](C)C[C@H]1c1ncc(-c2cccc(-c3ccc(-c4cc5[nH]c([C@@H]6C[C@H](C)CN6C(=O)[C@@H](NC(=O)OC)C(C)C)nc5s4)cc3)c2)[nH]1)C(C)C | > 20 µM |
| COC(=O)N[C@H](C(=O)N1C[C@@H](C)C[C@H]1c1ncc(C#Cc2ccc(-c3ccc(-c4cc5[nH]c([C@@H]6C[C@H](C)CN6C(=O)[C@@H](NC(=O)OC)C(C)C)nc5s4)cc3)cc2)[nH]1)C(C)C | > 20 µM |
| COC(=O)N[C@H](C(=O)N1C[C@@H](C)C[C@H]1c1ncc(-c2cc3sc(-c4ccc(-c5cc6[nH]c([C@@H]7C[C@H](C)CN7C(=O)[C@@H](NC(=O)OC)C(C)C)nc6s5)cc4)cc3s2)[nH]1)C(C)C | > 20 µM |
